Origin of measurements: PubChem BioAssay (NCI)

Tested on: MDA-MB-231 breast
test.name: NCI tumour cell line growth inhibition, 48 h; in the data active = GI50 below about 0.43 µM; inactive = the rest
Labels: active, inactive

# compound, label.class
records = [
    ("C=C1C(=O)O[C@H]2[C@H]1CC/C(COC(=O)NCCc1c[nH]c3ccc(OC)cc13)=C\\CC[C@@]1(C)O[C@@H]21", "inactive"),
    ("S=C1Nc2ccc(Cl)cc2C2(c3ccccc3)N3CCN=C3NN12 (centres undefined)", "inactive"),
    ("O=C(O)c1ccc(N/C=C2\\C(=O)c3ccccc3OC2O)cc1O (centres undefined)", "inactive"),
    ("CO[C@@H]1/C=C(C)/C=C/[C@@H](C)/C=C(\\C)C(=O)OC(/C(C)=C/C=C(\\C)CNC(=O)[C@H](CO)NC=O)[C@@H](C)/C=C/C=C/[C@H](OC)CC/C=C(C)/C=C/C1 (some centres undefined)", "active"),
    ("c1cn2cc(-c3ccc4cn[nH]c4c3)nc(Nc3ccc(N4CCOCC4)cc3)c2n1", "inactive"),
    ("COc1cc2c[n+](C)c3c4ccccc4ccc3c2cc1OC (tested in a mixture with another compound)", "inactive"),
    ("COc1cc(-c2nc3sc4c(c3c(=O)[nH]2)CCCCCC4)cc(OC)c1OC", "inactive"),
    ("O=C(c1ccco1)c1c(C(F)(F)F)n([O-])c2ccccc2[n+]1=O", "inactive"),
    ("O=Nc1ccc2ccccc2c1O", "inactive"),
]
